Target: eNOS promoter
Experiment: Activation of eNOS transcription (eNOS promoter firefly luciferase reporter)
Settings: EC50 of transcription induction ratio (TIR) vs compound concentration, determined graphically; stably transfected human endothelial cell line, 18 h incubation
measured endpoint: pEC50
pEC50 here is simply -log10 of the concentration when that concentration is written in mol/L.

Any idea what pEC50 came out for Cc1nc(-c2ccccc2)sc1C(=O)N[C@H]1CCc2ccccc2C1 [Compound 42] on eNOS promoter?
4.80

Any idea what pEC50 came out for Cc1cnc(C(=O)N[C@@H]2CCc3ccccc3C2)cn1 [Compound 35] on eNOS promoter?
4.83

Any idea what pEC50 came out for O=C(N[C@H]1CCc2ccccc2C1)c1ccncc1 [Compound 69] on eNOS promoter?
6.72

Any idea what pEC50 came out for O=C(N[C@H]1CCc2ccccc2C1)c1ccc(C(F)(F)F)nc1 [Compound 51] on eNOS promoter?
5.80

Any idea what pEC50 came out for Cc1nc(C(F)(F)F)c(C(=O)N[C@H]2CCc3ccccc3C2)s1 [Compound 46] on eNOS promoter?
6.39

Any idea what pEC50 came out for Cc1ccc(C(=O)N[C@H]2CCc3ccccc3C2)c(Cl)n1 [Compound 40] on eNOS promoter?
4.87

Any idea what pEC50 came out for CCCc1c(C(=O)N[C@@H]2CCc3ccccc3C2)cnn1-c1cc(Cl)cc(Cl)c1 [Compound 66] on eNOS promoter?
5.23

Any idea what pEC50 came out for COc1cccc2c1CC[C@@H](NC(=O)c1ccc(F)cc1)C2 [Compound 6] on eNOS promoter?
5.82

Any idea what pEC50 came out for O=C(N[C@@H]1CCc2ccccc2C1)c1cnn(-c2ccc(Cl)cc2)c1C(F)(F)F [Compound 33] on eNOS promoter?
5.15

Any idea what pEC50 came out for Cc1ccc(C(=O)N[C@@H]2CCc3ccccc3C2)c(Cl)n1 [Compound 39] on eNOS promoter?
4.55

Any idea what pEC50 came out for O=C(N[C@@H]1CCc2ccccc2C1)c1onc2ccccc12 [Compound 64] on eNOS promoter?
4.82

Any idea what pEC50 came out for O=C(N[C@@H]1CCc2ccccc2C1)c1ccc(C(F)(F)F)nc1 [Compound 50] on eNOS promoter?
4.61

Any idea what pEC50 came out for Cc1ccc(C(=O)N[C@H]2CCc3ccccc3C2)cn1 [Compound 20] on eNOS promoter?
4.61

Any idea what pEC50 came out for COc1ccc(-n2ncc(C(=O)N[C@@H]3CCc4ccccc4C3)c2C)cc1 [Compound 60] on eNOS promoter?
5.39

Any idea what pEC50 came out for O=C(N[C@H]1CCc2ccccc2C1)c1cnn(-c2ccc(Cl)cc2)c1C(F)(F)F [Compound 34] on eNOS promoter?
5.00

Any idea what pEC50 came out for Cc1ccc(C(=O)N[C@@H]2CCc3ccccc3C2)cn1 [Compound 19] on eNOS promoter?
4.96

Any idea what pEC50 came out for Cc1nc(C(F)(F)F)ccc1C(=O)N[C@H]1CCc2ccccc2C1 [Compound 55] on eNOS promoter?
5.96

Any idea what pEC50 came out for O=C(N[C@@H]1CCc2ccccc2C1)c1ccc2[nH]cnc2c1 [Compound 23] on eNOS promoter?
4.94

Any idea what pEC50 came out for Cc1nc(C)c(C(=O)N[C@H]2CCc3ccccc3C2)s1 [Compound 30] on eNOS promoter?
4.09

Any idea what pEC50 came out for O=C(N[C@@H]1CCc2ccccc2C1)c1cc2sccc2nc1C(F)(F)F [Compound 47] on eNOS promoter?
4.45

Any idea what pEC50 came out for O=C(NC1CCc2ccccc2C1)c1ccc(F)cc1 (stereo not shown) [Compound 1] on eNOS promoter?
5.66

Any idea what pEC50 came out for Cc1cc(C)c(C(=O)N[C@@H]2CCc3ccccc3C2)c(N)n1 [Compound 43] on eNOS promoter?
4.69

Any idea what pEC50 came out for N#Cc1ccc(C(=O)N[C@@H]2CCc3ccccc3C2)cn1 [Compound 56] on eNOS promoter?
5.56

Any idea what pEC50 came out for O=C(N[C@@H]1CCc2ccccc2C1)c1ccc(Cl)nc1 [Compound 14] on eNOS promoter?
5.23

Any idea what pEC50 came out for Cc1nc(-c2ccccc2)sc1C(=O)N[C@@H]1CCc2ccccc2C1 [Compound 41] on eNOS promoter?
4.69

Any idea what pEC50 came out for Cc1cnc(C(=O)N[C@H]2CCc3ccccc3C2)cn1 [Compound 36] on eNOS promoter?
6.48

Any idea what pEC50 came out for Cc1nc(C(F)(F)F)ccc1C(=O)N[C@@H]1CCc2ccccc2C1 [Compound 54] on eNOS promoter?
4.79
